- STUDY SYSTEM: T1, human TL1A extracellular domain with N-terminal HIS and FLAG tag (human, UniProt O95150 72-251)
- T1 construct: whole entry named. ~70 kDa fraction purified by gel filtration
- T1 sequence: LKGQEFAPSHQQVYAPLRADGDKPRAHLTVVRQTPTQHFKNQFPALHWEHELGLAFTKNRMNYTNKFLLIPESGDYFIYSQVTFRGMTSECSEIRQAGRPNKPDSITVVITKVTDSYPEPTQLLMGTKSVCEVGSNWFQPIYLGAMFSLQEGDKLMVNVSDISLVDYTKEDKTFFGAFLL
- EXPERIMENT: SPR run 2; supernatant on Protein A; TL1A 10 ug/mL; timepoint 44
REPORTED METRIC: TL1A Binding Level (Early)
Answer with the value and then the unit.

320-203 (antibody, human IgG1, name in Kabat numbering, V domains shown, human IgG1, lambda) VH: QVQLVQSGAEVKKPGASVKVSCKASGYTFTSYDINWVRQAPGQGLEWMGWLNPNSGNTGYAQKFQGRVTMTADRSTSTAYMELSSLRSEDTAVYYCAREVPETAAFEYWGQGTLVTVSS VL: QSVLTQPPSVSGAPGQRVTISCTDSSSDIGAGLGVHWYQQLPGTAPKLLIEGYYNRPSGVPDRFSGSKSGTSASLTITGLLPEDEGDYYCQSYDGTLSALFGGGTKLTVLG	61 RU
320-248 (antibody, human IgG1, name in Kabat numbering, V domains shown, human IgG1, lambda) VH: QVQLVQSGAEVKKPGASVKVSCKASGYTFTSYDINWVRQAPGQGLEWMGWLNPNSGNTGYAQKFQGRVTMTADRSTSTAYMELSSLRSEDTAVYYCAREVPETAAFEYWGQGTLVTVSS VL: QSVLTQPPSVSGAPGQRVTISCTSSSSDWGAGLGVHWYQQLPGTAPKLLIEGYYNRPSGVPDRFSGSKSGTSASLTITGLLPEDEGDYYCQSYDGTLSALFGGGTKLTVLG	96 RU

Please report TL1A Binding Level (Early) for the following binder: 320-220 (antibody, human IgG1, name in Kabat numbering, V domains shown, human IgG1, lambda) VH: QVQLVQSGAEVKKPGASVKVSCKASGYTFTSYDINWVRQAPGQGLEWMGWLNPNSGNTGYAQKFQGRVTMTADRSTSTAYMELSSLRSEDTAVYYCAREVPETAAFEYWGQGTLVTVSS VL: QSVLTQPPSVSGAPGQRVTISCTSSHSDIGAGLGVHWYQQLPGTAPKLLIEGYYNRPSGVPDRFSGSKSGTSASLTITGLLPEDEGDYYCQSYDGTLSALFGGGTKLTVLG
253 RU
